- target of assay: T1, schistosome legumain SmAE (Schistosoma mansoni asparaginyl endopeptidase) (Schistosoma mansoni), P09841
- T1 chain: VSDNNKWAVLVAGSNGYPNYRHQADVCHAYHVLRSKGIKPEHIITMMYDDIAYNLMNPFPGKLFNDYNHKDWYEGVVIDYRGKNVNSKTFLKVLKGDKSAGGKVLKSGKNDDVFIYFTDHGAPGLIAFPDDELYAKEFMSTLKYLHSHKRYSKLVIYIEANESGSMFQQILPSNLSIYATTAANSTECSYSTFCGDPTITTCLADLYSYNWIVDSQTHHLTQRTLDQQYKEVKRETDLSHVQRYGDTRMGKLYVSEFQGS
- assay protocol: cell-based or functional assay

[
  {
    "binder": "AAN (modifications not checked) [Cbz-Ala-Ala-AAsn-CH═CH-2-furyl]",
    "qual": ">",
    "IC50 (nM)": 2000
  },
  {
    "binder": "AAN (modifications not checked) [Cbz-Ala-Ala-AAsn-CH═CH-CO-tetrahydroisoquinoline]",
    "qual": "=",
    "IC50 (nM)": 200
  },
  {
    "binder": "AAN (modifications not checked) [Biotinyl-Ala-Ala-AAsn-CH═CH-COOEt]",
    "qual": "=",
    "IC50 (nM)": 10
  },
  {
    "binder": "AAN (modifications not checked) [Cbz-Ala-Ala-AAsn-CH═CH-CON(CH3)Ph]",
    "qual": "=",
    "IC50 (nM)": 60
  }
]
